molecular target: catalytic domain of human collagenase 3 (MMP-13) (Homo sapiens); construct: Determining the enzyme activity of the catalytic domain of human collagenase 3 (MMP-13); purchased INVITEK, Berlin 30 100 803; test: Enzyme activity of the catalytic domain of human collagenase 3 (MMP-13), fluorogenic substrate; type: biochemical; conditions: catalytic domain, activated proenzyme, pH 7.5; read-out: IC50 MMP13
pIC50: −log10 of the molar value.
Assign class by pIC50: not lower than 8 means condition met; lower than 8 means condition not met.

Observe how each entry below is paired with its result.
- COc1cccc(CNC(=O)c2cc(C(=O)NCc3ccc(NC(=O)NC4CCCCC4)cc3)ncn2)c1: condition not met
- Cc1cc(CNC(=O)c2cc(C(=O)NCc3ccc(C(=O)N4CCC(O)CC4)cc3)ncn2)ccc1F: condition not met
- COc1cccc(CNC(=O)c2cc(C(=O)NCc3ccc(C(=O)N4CCN(C)CC4)cc3)ncn2)c1: condition not met

# input Answer whether pIC50 of `CCN(CC)C(=O)c1ccc(CNC(=O)c2cc(C(=O)NCc3cccc(OC)c3)ncn2)cc1` is greater than or equal to 8.
# output condition met

# input In plain terms: is recorded pIC50 at least 8 for `Cc1cc(CNC(=O)c2cc(C(=O)NCc3ccc(C(=O)N4CCNC(=O)C4)cc3)ncn2)ccc1F` ?
# output condition not met
